Every entry's value here was drawn from patent US20250340630A1.

- Assay target: T1, human Claudin18.2 (human, UniProt P56856-2 1-261)
- T1 construct: whole, on cells; Four-transmembrane protein, always presented on cells (transfected lines or NUGC-4 with endogenous expression); also called CLDN18.2
- Method description: flow cytometry (IntelliCyt) on Ba/F3-Claudin18.2 cells
Below, each entry is listed with its recorded Max MFI.

Binder | Max MFI
humanized antibody 1E9.2-hz31 (antibody, human IgG1, kappa, V domains shown, Human IgG1 / kappa constant regions) VH: EVQLVESGGGLVKPGGSLRLSCAASGFSFSNSAMSWVRQAPGKGLEGVATISSGDSYTYYADSVKGRFTISRDNAKNSLYLQMNSLRAEDTAVYYCARQGYGNALDYWGQGTLVTVSS VL: DIVMTQSPDSLAVSLGERATINCKSSQSLLNSGNQKNYLTWYQQKPGQPPKLLIYWSSTRESGVPDRFSGSGSGTDFTLTISSLQAEDFAVYYCQNDYYYPLTFGGGTKVEIKR | 1.06e+07 MFI
chimeric antibody 1E9.2-hz00 (antibody, human IgG1, kappa, V domains shown, Mouse variable regions on human IgG1 / kappa constant regions; expressed in Expi293F; also called 1E9.2 chimeric antibody) VH: EVMLVESGGGLVKPGGSLKLSCAASGFSFSNSAMSWVRQTPEKRLEGVATISSGDSYTYYPDSVKGRFTISRDNAKNSLYLQMSSLRSEDTAVYYCARQGYGNALDYWGQGTSVTVSS VL: DIVMTQSPSSLTVTAGEKVTMSCKSSQSLLNSGNQKNYLTWYQQKPGQPPKLLIYWSSTRESGVPDRFTGSGSGTDFTLTISSVQAEDLAVYYCQNDYYYPLTFGAGTKLELKR | 1.12e+07 MFI
humanized antibody 1E9.2-hz11 (antibody, human IgG1, kappa, V domains shown, human IgG1 / kappa) VH: EVQLVESGGGLVKPGGSLRLSCAASGFSFSNSAMSWVRQAPGKGLEWVSTISSGDSYTYYADSVKGRFTISRDNAKNSLYLQMNSLRAEDTAVYYCARQGYGNALDYWGQGTLVTVSS VL: DIVMTQSPDSLAVSLGERATINCKSSQSLLNSGNQKNYLTWYQQKPGQPPKLLIYWSSTRESGVPDRFSGSGSGTDFTLTISSLQAEDFAVYYCQNDYYYPLTFGGGTKVEIKR | 1.13e+07 MFI
